meta.source: the supplement of paper PMC3334620

Target: Vhr1 (UniProt P40522)
Sequence: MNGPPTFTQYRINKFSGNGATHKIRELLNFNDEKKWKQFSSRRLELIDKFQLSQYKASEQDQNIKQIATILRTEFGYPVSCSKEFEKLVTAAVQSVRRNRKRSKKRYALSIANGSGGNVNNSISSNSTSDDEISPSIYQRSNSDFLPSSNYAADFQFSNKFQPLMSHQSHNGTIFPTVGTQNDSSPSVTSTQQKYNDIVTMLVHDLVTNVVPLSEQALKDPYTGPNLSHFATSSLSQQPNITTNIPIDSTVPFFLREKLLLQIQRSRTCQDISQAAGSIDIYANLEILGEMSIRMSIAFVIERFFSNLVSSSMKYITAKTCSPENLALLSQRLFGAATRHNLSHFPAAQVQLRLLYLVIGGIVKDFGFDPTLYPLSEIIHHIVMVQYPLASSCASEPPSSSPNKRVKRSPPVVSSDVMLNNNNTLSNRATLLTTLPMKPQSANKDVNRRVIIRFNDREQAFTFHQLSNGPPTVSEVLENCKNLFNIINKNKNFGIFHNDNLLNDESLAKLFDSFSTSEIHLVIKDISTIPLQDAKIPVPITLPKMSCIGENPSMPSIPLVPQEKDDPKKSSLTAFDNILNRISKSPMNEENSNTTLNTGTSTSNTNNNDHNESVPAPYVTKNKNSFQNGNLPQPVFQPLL
Assay: PBM E-score (8-mer binding enrichment) (E-score (-0.5 to 0.5)); higher = stronger / more preferred TF binding
Conditions: protein concentration: 200 nM; construct: GST-full length
The full ranking holds about 33,000 sequences; the median of “E-score (-0.5 to 0.5)” is about -0.012, and the highest 2% start at about 0.27. The sample holds the highest values, similar sequences and a random draw of the others, so the mix is not that of the screen.
Grouping rule (PBM E-score): band A = under -0.07, band B = from -0.07 up to 0.2, band C = 0.2 and over

For this sequence, which bin applies? TCGACCCA band B

For this sequence, which bin applies? GCCATAGC band A

For this sequence, which bin applies? CTAAAGAG band A

For this sequence, which bin applies? CTCGACTC band B

Next:
For this sequence, which bin applies? AAAAGCCA band B

For this sequence, which bin applies? GCTGTCAA band A

For this sequence, which bin applies? GTGGGGTA band C

For this sequence, which bin applies? TCGACTCA band C

----------
Molecular target: Vhr1 (UniProt P40522)
Sequence: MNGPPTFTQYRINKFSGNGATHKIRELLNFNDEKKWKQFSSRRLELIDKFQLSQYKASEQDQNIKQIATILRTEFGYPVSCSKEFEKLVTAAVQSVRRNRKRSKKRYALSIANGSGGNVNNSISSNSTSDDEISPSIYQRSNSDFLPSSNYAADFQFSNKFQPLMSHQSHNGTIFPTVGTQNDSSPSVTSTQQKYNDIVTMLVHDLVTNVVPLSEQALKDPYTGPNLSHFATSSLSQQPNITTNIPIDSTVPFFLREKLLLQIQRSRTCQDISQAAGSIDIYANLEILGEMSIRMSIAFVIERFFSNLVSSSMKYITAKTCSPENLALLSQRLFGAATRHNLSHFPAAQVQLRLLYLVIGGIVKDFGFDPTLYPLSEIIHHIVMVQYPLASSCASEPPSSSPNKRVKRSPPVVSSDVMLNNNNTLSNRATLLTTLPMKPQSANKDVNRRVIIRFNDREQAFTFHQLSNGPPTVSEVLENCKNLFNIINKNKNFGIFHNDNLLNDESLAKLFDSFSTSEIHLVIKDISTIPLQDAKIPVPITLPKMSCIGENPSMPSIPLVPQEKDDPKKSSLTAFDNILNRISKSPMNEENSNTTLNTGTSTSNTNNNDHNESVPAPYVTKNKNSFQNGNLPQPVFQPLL
Experiment: PBM E-score (8-mer binding enrichment) (E-score (-0.5 to 0.5)); higher = stronger / more preferred TF binding
Settings: protein concentration: 200 nM; construct: GST-full length
Over roughly 33,000 sequences, “E-score (-0.5 to 0.5)” has its median near -0.012; the highest 2% begin near 0.27. Many of the other results were omitted from the sample, so the highest values are more common in it than they were.
Attribute: PBM E-score
Just the number, please, no unit attached.

Take a look at these entries with their results.
For record CAGTCAGA the listed PBM E-score is 0.224

For record CATACCCA the listed PBM E-score is 0.271

For record CCGAATCC the listed PBM E-score is 0.0952

For record GCTACTCA the listed PBM E-score is 0.271

Moving on to the next sequence.
For record GCGAATCA the listed PBM E-score is 0.345
